This listing pairs compounds with measured Minimal Inhibitory Concentration, S. aureus ATCC 6538P.
test system: Staphylococcus aureus ATCC 6538P; format: cell-based; details: ATCC 6538, pH 7.4
Non-standard residues stand in square brackets, D forms with d. Residues, ends and D or L forms follow the SMILES beside them. *: point of attachment. Palmitoyl = CCCCCCCCCCCCCCCC(=O)*

These recorded examples may help you get a feel for the data.
[
  {
    "Compound": "CCCCCCCCCCCCCCCC(=O)N[C@@H](CCCCN)C(N)=O",
    "Value measured": ">100 µM"
  },
  {
    "Compound": "CC(C)C[C@@H](N)C(=O)N[C@@H](CCCCN)C(=O)N[C@@H](CCCCN)C(=O)N[C@H](CC(C)C)C(=O)N[C@H](CC(C)C)C(=O)N[C@@H](CCCCN)C(=O)N[C@@H](CCCCN)C(=O)N[C@H](CC(C)C)C(=O)N[C@H](CC(C)C)C(=O)N[C@@H](CCCCN)C(=O)N[C@@H](CCCCN)C(=O)N[C@H](CC(C)C)C(N)=O [[D]-L6K6, LKKLLKKLLKKL, reference compound] (H-[dL]KK[dL][dL]KK[dL][dL]KK[dL]-NH2; N-terminus assumed)",
    "Value measured": ">50 µM"
  }
]

Task item: Which Minimal Inhibitory Concentration, S. aureus ATCC 6538P reading was recorded for the compound CCCCCCCCCCCCCCCC(=O)N[C@@H](CCCCN)C(=O)N[C@@H](CCC(=O)O)C(N)=O [PA-KE] (Palmitoyl-Lys-Glu-NH2) ?
Reply: >100 µM

* * *

system: Pseudomonas aeruginosa ATCC 27853; assay type: cell-based; conditions: ATCC 27853, pH 7.4
Non-standard residues stand in square brackets, D forms with d. Residues, ends and D or L forms follow the SMILES beside them. *: point of attachment. Palmitoyl = CCCCCCCCCCCCCCCC(=O)*
Measurement name: Minimal Inhibitory Concentration, P. aeruginosa ATCC 27853

These recorded examples may help you get a feel for the data.
[
  {
    "Compound": "CC(C)[C@H](NC(=O)[C@H](CCCCN)NC(=O)[C@H](NC(=O)[C@H](NC(=O)[C@@H](NC(=O)[C@@H](N)CCCCN)C(C)C)C(C)C)C(C)C)C(=O)N[C@H](C(=O)N[C@@H](C(=O)N[C@@H](CCCCN)C(=O)N[C@@H](C(=O)N[C@H](C(=O)N[C@@H](CCCCN)C(N)=O)C(C)C)C(C)C)C(C)C)C(C)C [DK4V8, reference compound] (H-KV[dV][dV]KVV[dV]K[dV]VK-NH2; N-terminus assumed)",
    "Value measured": ">100 µM"
  },
  {
    "Compound": "CCCCCCCCCCCCCCCC(=O)N[C@H](CC(C)C)C(=O)N[C@@H](CCCCN)C(=O)N[C@@H](CCCCN)C(=O)N[C@H](CC(C)C)C(=O)N[C@H](CC(C)C)C(=O)N[C@@H](CCCCN)C(=O)N[C@@H](CCCCN)C(=O)N[C@H](CC(C)C)C(=O)N[C@H](CC(C)C)C(=O)N[C@@H](CCCCN)C(=O)N[C@@H](CCCCN)C(=O)N[C@H](CC(C)C)C(N)=O [lipopeptide 24] (Palmitoyl-[dL]KK[dL][dL]KK[dL][dL]KK[dL]-NH2)",
    "Value measured": ">50 µM"
  }
]

Here is the next item to consider.
Task item: Which Minimal Inhibitory Concentration, P. aeruginosa ATCC 27853 reading was recorded for the compound CC(C)C[C@@H](N)C(=O)N[C@@H](CCCCN)C(=O)N[C@@H](CCCCN)C(=O)N[C@H](CC(C)C)C(=O)N[C@H](CC(C)C)C(=O)N[C@@H](CCCCN)C(=O)N[C@@H](CCCCN)C(=O)N[C@H](CC(C)C)C(=O)N[C@H](CC(C)C)C(=O)N[C@@H](CCCCN)C(=O)N[C@@H](CCCCN)C(=O)N[C@H](CC(C)C)C(N)=O [[D]-L6K6, LKKLLKKLLKKL, reference compound] (H-[dL]KK[dL][dL]KK[dL][dL]KK[dL]-NH2; N-terminus assumed) ?
Reply: >50 µM
